Source listed as paper PMC5171790.

assayed_target: Hrg
procedure_details: ITC
cond: 10 mM sodium phosphate, 50 mM NaCl, pH 7.4, 25 °C; single-site model
readout_label: pKd
Kindly note that pKd refers to -log10 of the concentration in mol/L and answer with the value alone.

According to the records, this compound NC(=O)c1ncn([C@@H]2O[C@H](CO)[C@@H](O)[C@H]2O)n1 displays pKd of 3.63
